Cited source for all entries: ChEMBL document CHEMBL4257586

# System: Quadruplex DNA
# assay.procedure: Binding affinity to 6-FAM labeled human telomeric F21T G-quadruplex DNA assessed as change in melting temperature at 1 uM in K+ rich buffer (10 mM KCl, 90 mM LiCl, 10 mM Li cacodylate) by FRET assay
# Assay type: nucleic-acid assay
readout.name: ΔTm

-- ask Fill blank: measured ΔTm of the compound c1cc(-c2cnco2)nc(-c2ncc(-c3cc(OCCN4CCCCC4)cc(-c4cnc(-c5cccc(-c6cnco6)n5)o4)n3)o2)c1 is ____.
-- reply 5 to 7 °C

-- ask Continue with c1cc(-c2cnco2)nc(-c2cnc(-c3cccc(-c4cccc(-c5ncc(-c6cccc(-c7cnco7)n6)o5)n4)n3)o2)c1
-- reply 6 to 9 °C

-- ask Continue with CN(C)CCOc1cc(-c2ncc(-c3cccc(-c4cnco4)n3)o2)nc(-c2ncc(-c3cccc(-c4cnco4)n3)o2)c1
-- reply 6 to 9 °C

-- ask Continue with c1ccc(-c2cnc(-c3cccc(-c4ncc(-c5ccccn5)o4)n3)o2)nc1
-- reply 5.3 °C

-- ask Continue with c1cc(-c2cnco2)nc(-c2cnc(-c3cccc(-c4ncc(-c5cccc(-c6cnco6)n5)o4)n3)o2)c1
-- reply 6 to 9 °C

-- ask Continue with CN(C)CCOc1cc(-c2cnc(-c3cccc(-c4cnco4)n3)o2)nc(-c2cnc(-c3cccc(-c4cnco4)n3)o2)c1
-- reply 5 to 7 °C

-- ask Continue with c1cc(-c2cnc(-c3cccc(-c4cnco4)n3)o2)nc(-c2cnc(-c3cccc(-c4cnco4)n3)o2)c1
-- reply 5 to 7 °C

----------
# Tested on: A-431
# assay.procedure: Antiproliferative activity against human A431 cells after 72 hrs by MTS assay
# Format: functional, cell-based
# assay.setup: A-431, 72 h
readout.name: pIC50
pIC50 field: float, defined as -log10 of concentration (mol/L).

-- ask Fill blank: measured pIC50 of the molecule c1cc(-c2cnco2)nc(-c2cnc(-c3cccc(-c4ncc(-c5cccc(-c6cnco6)n5)o4)n3)o2)c1 is ____.
-- reply 6.19

-- ask Continue with c1cc(-c2cnco2)nc(-c2cnc(-c3cccc(-c4cccc(-c5ncc(-c6cccc(-c7cnco7)n6)o5)n4)n3)o2)c1
-- reply 6.27

----------
# Tested on: HEK293
# assay.procedure: Antiproliferative activity against HEK293 cells after 72 hrs by MTS assay
# Format: cell-based
# assay.setup: Homo sapiens, HEK293, 72 h
readout.name: pIC50
pIC50 field: float, defined as -log10 of concentration (mol/L).

-- ask Fill blank: measured pIC50 of the molecule c1cc(-c2cnco2)nc(-c2cnc(-c3cccc(-c4ncc(-c5cccc(-c6cnco6)n5)o4)n3)o2)c1 is ____.
-- reply 6.34

----------
# Tested on: Quadruplex DNA
# assay.procedure: Binding affinity to 6-FAM labeled human proto-oncogene sequence FMycT G-quadruplex DNA assessed as change in melting temperature at 1 uM in presence of K+ buffer (1 mM KCl, 99 mM LiCl, 10 mM Li cacodylate) by FRET assay
# Type: nucleic-acid assay
readout.name: ΔTm

-- ask Fill blank: measured ΔTm of the compound CN(C)CCOc1cc(-c2ncc(-c3ccccn3)o2)nc(-c2ncc(-c3ccccn3)o2)c1 is ____.
-- reply 1.8 to 2.9 °C

-- ask Continue with c1ccc(-c2cnc(-c3cccc(-c4ncc(-c5ccccn5)o4)n3)o2)nc1
-- reply 1.8 to 2.9 °C

-- ask Continue with CN(C)CCOc1cc(-c2ncc(-c3cccc(-c4cnco4)n3)o2)nc(-c2ncc(-c3cccc(-c4cnco4)n3)o2)c1
-- reply 3.4 to 6.4 °C

-- ask Continue with CN(C)CCOc1cc(-c2cnc(-c3cccc(-c4cnco4)n3)o2)nc(-c2cnc(-c3cccc(-c4cnco4)n3)o2)c1
-- reply 2.5 to 4.3 °C

-- ask Continue with c1cc(-c2cnco2)nc(-c2cnc(-c3cccc(-c4ncc(-c5cccc(-c6cnco6)n5)o4)n3)o2)c1
-- reply 3.4 to 6.4 °C

-- ask Continue with c1cc(-c2cnco2)nc(-c2ncc(-c3cc(OCCN4CCCCC4)cc(-c4cnc(-c5cccc(-c6cnco6)n5)o4)n3)o2)c1
-- reply 2.5 to 4.3 °C

-- ask Continue with c1cc(-c2cnc(-c3cccc(-c4cnco4)n3)o2)nc(-c2cnc(-c3cccc(-c4cnco4)n3)o2)c1
-- reply 2.5 to 4.3 °C
